# target_or_system: UniProt:P68400
# Sequence (P68400 whole entry, looked up): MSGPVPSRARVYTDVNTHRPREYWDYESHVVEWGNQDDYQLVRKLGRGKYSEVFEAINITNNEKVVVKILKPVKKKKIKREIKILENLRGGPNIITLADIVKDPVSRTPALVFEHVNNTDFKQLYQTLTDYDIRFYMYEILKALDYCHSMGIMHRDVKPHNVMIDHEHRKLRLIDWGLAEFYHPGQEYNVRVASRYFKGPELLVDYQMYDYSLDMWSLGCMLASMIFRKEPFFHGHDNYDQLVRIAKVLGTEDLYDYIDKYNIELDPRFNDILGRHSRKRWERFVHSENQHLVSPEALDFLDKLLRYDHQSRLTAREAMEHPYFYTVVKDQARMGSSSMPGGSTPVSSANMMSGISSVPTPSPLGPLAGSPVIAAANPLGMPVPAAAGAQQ
# recorded_conditions: compound 1.0 µM
Entries and their measured inhibition follow.
Supply the numeric figure in %, leaving out any unit text.

Example entries and their recorded answers appear below.
// recorded inhibition for O=C1NCCc2[nH]c(-c3ccnc(-c4ccccc4F)c3)cc21 : 20.5

Entry Cc1ccc(-c2nn(C(C)(C)C)c3ncnc(N)c23)cc1 ; inhibition = 1

inhibition for O=S(=O)(c1cccc2cnccc12)N1CCCNCC1 is 0

// sample CC[C@@H](CO)Nc1nc(NCc2ccccc2)c2ncn(C(C)C)c2n1 , its inhibition was 1.93

So, CS(=O)(=O)CCNCc1ccc(-c2ccc3ncnc(Nc4ccc(OCc5cccc(F)c5)c(Cl)c4)c3c2)o1 ? Its inhibition was 0

Per the record, C#Cc1cccc(Nc2ncnc3cc(OCCOC)c(OCCOC)cc23)c1 has inhibition of 0

Consider the record given below.
inhibition recorded for this molecule, CS(=O)c1ccc(-c2nc(-c3ccc(F)cc3)c(-c3ccncc3)[nH]2)cc1 (configuration not stated) , is 0

----------
# target_or_system: NTRK1 (human) (UniProt P04629)
# Sequence (P04629 whole entry, looked up): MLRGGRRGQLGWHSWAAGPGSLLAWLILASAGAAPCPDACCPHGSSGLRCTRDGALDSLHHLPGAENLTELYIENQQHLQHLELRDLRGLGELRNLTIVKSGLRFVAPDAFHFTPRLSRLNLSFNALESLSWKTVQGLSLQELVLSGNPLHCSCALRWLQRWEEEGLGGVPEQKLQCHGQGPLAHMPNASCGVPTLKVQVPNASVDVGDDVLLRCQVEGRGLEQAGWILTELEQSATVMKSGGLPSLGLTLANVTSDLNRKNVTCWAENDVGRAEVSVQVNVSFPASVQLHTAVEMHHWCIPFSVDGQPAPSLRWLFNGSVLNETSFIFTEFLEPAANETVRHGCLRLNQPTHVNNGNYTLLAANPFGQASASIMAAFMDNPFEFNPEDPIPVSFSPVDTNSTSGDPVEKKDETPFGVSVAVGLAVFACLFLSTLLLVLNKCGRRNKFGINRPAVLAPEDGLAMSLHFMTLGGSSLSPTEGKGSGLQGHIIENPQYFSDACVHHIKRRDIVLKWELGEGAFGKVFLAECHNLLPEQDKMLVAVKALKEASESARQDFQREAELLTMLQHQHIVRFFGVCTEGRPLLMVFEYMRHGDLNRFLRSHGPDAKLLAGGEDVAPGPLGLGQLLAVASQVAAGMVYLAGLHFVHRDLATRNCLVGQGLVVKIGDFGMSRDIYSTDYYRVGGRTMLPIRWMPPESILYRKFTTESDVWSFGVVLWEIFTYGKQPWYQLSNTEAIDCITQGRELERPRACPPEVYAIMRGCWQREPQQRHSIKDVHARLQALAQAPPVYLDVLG
# recorded_conditions: compound 1.0 µM
Lab note: anything with inhibition at or over 4% counts as criterion met; the rest go in criterion not met.

Use these answered entries as a reference point.
Exercise: Quick check, inhibition >= 4%? O=S(=O)(c1cccc2cnccc12)N1CCCNCC1
Solution: criterion not met

Exercise: Form field: inhibition at least 4%? Entry: CS(=O)(=O)CCNCc1ccc(-c2ccc3ncnc(Nc4ccc(OCc5cccc(F)c5)c(Cl)c4)c3c2)o1
Solution: criterion not met

Exercise: Decide: is the reported value of inhibition for C#Cc1cccc(Nc2ncnc3cc(OCCOC)c(OCCOC)cc23)c1 equal to or greater than 4%?
Solution: criterion met

Exercise: Is inhibition for CS(=O)c1ccc(-c2nc(-c3ccc(F)cc3)c(-c3ccncc3)[nH]2)cc1 (stereo unspecified) at or above 4%?
Solution: criterion met

Exercise: Say whether CC[C@@H](CO)Nc1nc(NCc2ccccc2)c2ncn(C(C)C)c2n1 shows inhibition of 4% or more.
Solution: criterion not met

Then this molecule:
Exercise: Textbook exercise: given the entry Cc1ccc(-c2nn(C(C)(C)C)c3ncnc(N)c23)cc1 , state whether its inhibition is greater than or equal to 4%.
Solution: criterion met

----------
# target_or_system: SRC (human)
# recorded_conditions: compound 1.0 µM
I would appreciate it if you labelled entries TRUE when inhibition is 10% or higher, otherwise FALSE.

Exercise: Determine whether this compound has inhibition no lower than 10%: CC[C@@H](CO)Nc1nc(NCc2ccccc2)c2ncn(C(C)C)c2n1
Solution: FALSE

Exercise: Is inhibition at least 10%? Consider C#Cc1cccc(Nc2ncnc3cc(OCCOC)c(OCCOC)cc23)c1
Solution: TRUE

Exercise: Form field: inhibition at least 10%? Entry: CS(=O)(=O)CCNCc1ccc(-c2ccc3ncnc(Nc4ccc(OCc5cccc(F)c5)c(Cl)c4)c3c2)o1
Solution: FALSE

Exercise: Textbook exercise: given the entry CS(=O)c1ccc(-c2nc(-c3ccc(F)cc3)c(-c3ccncc3)[nH]2)cc1 (configuration not stated) , state whether its inhibition is greater than or equal to 10%.
Solution: TRUE

Exercise: Does O=S(=O)(c1cccc2cnccc12)N1CCCNCC1 have a reported inhibition of at least 10%?
Solution: FALSE

Exercise: # bool: inhibition of Cc1ccc(-c2nn(C(C)(C)C)c3ncnc(N)c23)cc1 >= 10%
Solution: TRUE
